This collection of values is drawn from the supplement of paper PMC10567573.

B1: CASP6 (parent)
chain: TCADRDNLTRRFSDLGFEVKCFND

- Variants of: B1
- PROTOCOL TEXT: protein stability index of a GFP-peptide fusion (GPS, HEK-293T) (PSI 1-6); higher = more stable;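 note: lentivirally expressed fusions sorted by FACS into six bins by GFP to DsRed ratio, PSI derived from sequencing read proportions per bin multiplied by bin number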
- CONDITION: c terminus: a fixed tail appended
ATTRIBUTE MEASURED: protein stability index
// keep it numeric: no unit symbol after the value

For orientation, consider the following solved cases.
   mutant       attribute_measured  observed_result
0    C21T  protein stability index             3.98
1    S13N  protein stability index             3.44
2     T9G  protein stability index             3.47
3    G16Q  protein stability index             3.31
4    F17V  protein stability index             3.61
5    F12C  protein stability index             3.08

Prompt line: Endpoint output: protein stability index of `F12K` . Value?
Response line: 4.1

Prompt line: So what's the measured protein stability index for this one? `R10F`
Response line: 2.98

Prompt line: Item `F22D` has what recorded protein stability index?
Response line: 4.95

Prompt line: Any idea what its protein stability index is? The variant is `V19T`
Response line: 4.24

Prompt line: Requested field: protein stability index. Item: `T1C`
Response line: 2.88

Prompt line: What value of protein stability index has been reported for the following variant? `T9K`
Response line: 3.12
